Please consider the recorded log10(IC50) for UniProt:P50613 in what follows.
Sequence (P50613 whole entry): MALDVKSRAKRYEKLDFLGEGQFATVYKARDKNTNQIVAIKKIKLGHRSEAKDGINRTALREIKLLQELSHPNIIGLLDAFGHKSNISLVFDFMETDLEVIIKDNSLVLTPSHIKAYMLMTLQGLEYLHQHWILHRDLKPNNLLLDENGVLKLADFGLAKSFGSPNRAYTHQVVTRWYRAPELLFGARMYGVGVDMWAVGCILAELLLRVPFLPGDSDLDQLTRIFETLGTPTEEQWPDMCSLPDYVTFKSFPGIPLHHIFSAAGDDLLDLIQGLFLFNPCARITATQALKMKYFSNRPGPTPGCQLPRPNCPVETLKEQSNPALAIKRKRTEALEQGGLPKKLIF
value type: log10(IC50) (log10 of the value in nM)

query_smiles=c1cnn(-c2ccc3c(-c4cc5cc(CN6CCCCC6)ccc5[nH]4)n[nH]c3c2)c1 result_number=3.36
query_smiles=OCc1nn[nH]c1-c1ccc2c(-c3cc4cc(CN5CCC(F)CC5)ccc4[nH]3)n[nH]c2c1 result_number=2.26
query_smiles=c1ccc(-c2ccc3c(-c4cc5cc(CN6CCCCC6)ccc5[nH]4)n[nH]c3c2)cc1 result_number=3.85
query_smiles=c1csc(-c2ccc3c(-c4cc5cc(CN6CCCCC6)ccc5[nH]4)n[nH]c3c2)n1 result_number=3.60
query_smiles=CC(=O)N1CCN(Cc2ccc3[nH]c(-c4n[nH]c5cc(C#N)ccc45)cc3c2)CC1 result_number=1.59
query_smiles=c1cnn(-c2ccc3c(-c4cc5cc(CN6CCCCC6)ccc5[nH]4)n[nH]c3c2)n1 result_number=2.68
query_smiles=COc1cc(-c2ccc3c(-c4cc5cc(CN6CCCCC6)ccc5[nH]4)n[nH]c3c2)ccc1O result_number=2.49

Hello, the source for this data is ChEMBL document CHEMBL1139742, in case you need it.
